# Tested on: biotinyl-Leu-oxazolone
# Method notes: self-aminoacylation, catalytic enhancement (BLO) (fold over background); higher = more active; k-Seq, kA / k0A0; sequences stand for … in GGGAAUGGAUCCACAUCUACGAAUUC…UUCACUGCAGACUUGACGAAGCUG
Fewer inactive variants are shown than the library holds.
Answer 0.0 if self-aminoacylation is under 3, and 1.0 if it is 3 or more.

Sequence content | Target under test | Class name
CCACUUCAAACAAUCGGGCUG [Fam1A.1 aminoacylation ribozyme variant] | biotinyl-Leu-oxazolone | 0.0
AUCACCCUAGUCAUCGAGUGA [Fam2.1 aminoacylation ribozyme variant] | biotinyl-Leu-oxazolone | 1.0
AAGUUUGAUAAGAGUCGCAAG [Fam3.1 aminoacylation ribozyme variant] | biotinyl-Leu-oxazolone | 0.0
CUACUUCAAACACUCGGCCUG [Fam1A.1 aminoacylation ribozyme variant] | biotinyl-Leu-oxazolone | 0.0
CUACUUCGAACCAUCGGUCUG [Fam1A.1 aminoacylation ribozyme variant] | biotinyl-Leu-oxazolone | 0.0
AUAACCCUGGUCAUCGAGUGU [Fam2.1 aminoacylation ribozyme variant] | biotinyl-Leu-oxazolone | 1.0
CUACUUCAAACCAUCCGUCUG [Fam1A.1 aminoacylation ribozyme variant] | biotinyl-Leu-oxazolone | 0.0
AAGUUCGCUAAUAGUGGCAAG [Fam3.1 aminoacylation ribozyme variant] | biotinyl-Leu-oxazolone | 0.0
AUCACCCUCGUCAUCGAGUGA [Fam2.1 aminoacylation ribozyme variant] | biotinyl-Leu-oxazolone | 1.0
AAGUGUGCUAAUAGUCGUAAG [Fam3.1 aminoacylation ribozyme variant] | biotinyl-Leu-oxazolone | 0.0
AGUGACCUAGGUCAUCGGGUG [Fam2.2 aminoacylation ribozyme variant] | biotinyl-Leu-oxazolone | 1.0
CCACACUUCAAGCCAUCGGGC [Fam1B.1 aminoacylation ribozyme variant] | biotinyl-Leu-oxazolone | 1.0
CUACUUCAAACCAUCGAUCUG [Fam1A.1 aminoacylation ribozyme variant] | biotinyl-Leu-oxazolone | 0.0
AUUCACCUAGGUCAUCGCGGG [Fam2.2 aminoacylation ribozyme variant] | biotinyl-Leu-oxazolone | 1.0
CUUCUUCAAGCAAUCGGUCUG [Fam1A.1 aminoacylation ribozyme variant] | biotinyl-Leu-oxazolone | 0.0
AAGUUUGAUAAUACUCGCAAG [Fam3.1 aminoacylation ribozyme variant] | biotinyl-Leu-oxazolone | 0.0
CCACACUUCUAGCAAUCGGUC [Fam1B.1 aminoacylation ribozyme variant] | biotinyl-Leu-oxazolone | 0.0
AUUACGCUGGUCAUCAAGUGA [Fam2.1 aminoacylation ribozyme variant] | biotinyl-Leu-oxazolone | 0.0
AUCCACUUAGGUCAUCGGGUG [Fam2.2 aminoacylation ribozyme variant] | biotinyl-Leu-oxazolone | 1.0
CUUCUUCAAACAAGCGGUCUG [Fam1A.1 aminoacylation ribozyme variant] | biotinyl-Leu-oxazolone | 0.0
CCACACUUCAAGCAUUUGGUC [Fam1B.1 aminoacylation ribozyme variant] | biotinyl-Leu-oxazolone | 0.0
AAGUCUGCUAAUAGUCACAAG [Fam3.1 aminoacylation ribozyme variant] | biotinyl-Leu-oxazolone | 0.0
CUAGUUCAAACAAUCCGUCUG [Fam1A.1 aminoacylation ribozyme variant] | biotinyl-Leu-oxazolone | 0.0
CUACUUCAAACAAUCGAACUG [Fam1A.1 aminoacylation ribozyme variant] | biotinyl-Leu-oxazolone | 0.0
CCACUUCAAUCAAUCGGUCUG [Fam1A.1 aminoacylation ribozyme variant] | biotinyl-Leu-oxazolone | 0.0
AAGUAUGCUCAUAGUCGCAAG [Fam3.1 aminoacylation ribozyme variant] | biotinyl-Leu-oxazolone | 0.0
CCCCACUUCAAGCAAUCGGGC [Fam1B.1 aminoacylation ribozyme variant] | biotinyl-Leu-oxazolone | 0.0
AAGUUUGCUAAAAGUCGCAAC [Fam3.1 aminoacylation ribozyme variant] | biotinyl-Leu-oxazolone | 0.0
AUUUACCUAGGUCCUCGGGUG [Fam2.2 aminoacylation ribozyme variant] | biotinyl-Leu-oxazolone | 1.0
CUACUUCAAAAAAUCGGUCAG [Fam1A.1 aminoacylation ribozyme variant] | biotinyl-Leu-oxazolone | 0.0
AUUACCCUGGUACUCGAGUGA [Fam2.1 aminoacylation ribozyme variant] | biotinyl-Leu-oxazolone | 0.0
AUUACCUUGGUCAUCGAGUCA [Fam2.1 aminoacylation ribozyme variant] | biotinyl-Leu-oxazolone | 0.0
AUUACCAUUGUCAUCGAGUGA [Fam2.1 aminoacylation ribozyme variant] | biotinyl-Leu-oxazolone | 1.0
AUUCACCUAGGUCCUAGGGUG [Fam2.2 aminoacylation ribozyme variant] | biotinyl-Leu-oxazolone | 1.0
AAGUUUGCUAAUAGUGGUAAG [Fam3.1 aminoacylation ribozyme variant] | biotinyl-Leu-oxazolone | 0.0
